- system-under-test: recombinant human Meningioma Expressed Antigen 5 (MGEA5), also referred to as O-GlcNAcase (OGA) (Homo sapiens, UniProt O60502)
- Construct: Full length OGA enzyme was purchased at OriGene (cat #TP322411); purchased OriGene TP322411
- protocol-details: OGA biochemical assay (inhibition of FM-GlcNAc hydrolysis, fluorescence)
- protocol-conditions: Enzymatic hOGA; pIC50, Table 5; full length OGA 2 nM, FM-GlcNAc 100 uM, 6 h at room temperature
Kindly apply the following: 1.0 if IC50 is less than 100 nM, 0.0 in every other case.

Sample answers from the record:
Cc1cc(C(F)(F)F)cc(C)c1Nc1nccc2c1ncn2CC(N)=O = 0.0
[2H]C([2H])([2H])N(C(=O)Cn1cnc2c(Nc3c(C)cc(C(F)(F)F)cc3C)nccc21)C([2H])([2H])[2H] = 1.0
CCCCn1cnc2c(Nc3c(Cl)cncc3Cl)nccc21 = 0.0
Cc1cc(C(F)(F)F)cc(C)c1Nc1nccc2c1ncn2-c1cn(C)cn1 = 0.0
Cc1cc(C(F)(F)F)cc(C)c1Nc1nccc2c1ncn2-c1ccc(F)cn1 = 0.0

Would you kindly verify if IC50 of `CC(C)c1cc(C(F)(F)F)cc(F)c1Nc1nccc2c1ncn2CC(=O)N(C)C` is strictly less than 100 nM? 1.0

Would you kindly verify if IC50 of `Cc1ccnc(C(C)C)c1Nc1nccc2c1ncn2CC(=O)N(C)C` is strictly less than 100 nM? 1.0

Would you kindly verify if IC50 of `Cc1cc(OC(F)(F)F)cc(C)c1Nc1nccc2c1ncn2CC(=O)N(C)C` is strictly less than 100 nM? 1.0

====

- system-under-test: recombinant human Meningioma Expressed Antigen 5 (MGEA5), also referred to as O-GlcNAcase (OGA) (Homo sapiens, UniProt O60502)
- Construct: Full length OGA enzyme was purchased at OriGene (cat #TP322411); purchased OriGene TP322411
- Sequence (O60502 1-916): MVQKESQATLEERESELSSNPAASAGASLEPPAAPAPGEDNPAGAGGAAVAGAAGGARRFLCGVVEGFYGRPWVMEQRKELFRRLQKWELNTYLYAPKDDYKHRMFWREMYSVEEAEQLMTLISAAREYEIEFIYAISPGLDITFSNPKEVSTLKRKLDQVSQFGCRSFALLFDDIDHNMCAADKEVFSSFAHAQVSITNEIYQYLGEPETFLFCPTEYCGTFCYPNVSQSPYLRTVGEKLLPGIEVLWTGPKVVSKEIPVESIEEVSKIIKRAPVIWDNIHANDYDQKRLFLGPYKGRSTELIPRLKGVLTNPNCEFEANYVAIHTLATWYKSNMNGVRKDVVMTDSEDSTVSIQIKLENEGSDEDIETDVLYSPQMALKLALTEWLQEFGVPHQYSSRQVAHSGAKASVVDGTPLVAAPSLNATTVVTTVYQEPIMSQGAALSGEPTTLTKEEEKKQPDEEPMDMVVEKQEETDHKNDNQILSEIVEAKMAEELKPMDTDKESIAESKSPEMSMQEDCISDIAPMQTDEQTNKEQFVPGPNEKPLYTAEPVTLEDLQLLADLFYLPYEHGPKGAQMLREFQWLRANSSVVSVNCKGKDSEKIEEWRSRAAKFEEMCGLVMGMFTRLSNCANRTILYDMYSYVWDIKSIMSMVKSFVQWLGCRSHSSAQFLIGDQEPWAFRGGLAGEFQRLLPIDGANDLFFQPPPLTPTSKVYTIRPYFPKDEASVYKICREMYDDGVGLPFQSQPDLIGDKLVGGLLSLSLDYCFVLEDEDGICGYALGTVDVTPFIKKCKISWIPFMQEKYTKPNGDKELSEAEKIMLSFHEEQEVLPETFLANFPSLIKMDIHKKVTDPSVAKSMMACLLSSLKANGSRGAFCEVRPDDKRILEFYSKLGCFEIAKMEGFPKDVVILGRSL
- protocol-details: OGA biochemical assay (inhibition of FM-GlcNAc hydrolysis, fluorescence)
- protocol-conditions: Enzymatic hOGA; pIC50, Table 5; full length OGA 2 nM, FM-GlcNAc 100 uM, 6 h at room temperature
Assign pIC50 to each entry below.
One number for each entry, as −log10 of the molar value.

The examples below pair each entry with its known result.
Cc1cc2c(cnn2C)c(C)c1Nc1nccc2c1ncn2CC(=O)N(C)C [Compound 13] = 7.86
Cc1cc(C(F)(F)F)cc(C)c1Nc1nccc2c1ncn2Cc1ccon1 [Compound 59] = 8.04
Cc1cc(C(F)(F)F)cc(C)c1Nc1ncc(C)c2c1ncn2CC(=O)N(C)C [Compound 6] = 7.72
CN(C)C(=O)Cn1cnc2c(Nc3ccc(F)cc3C(F)(F)F)nccc21 [Compound 29] = 6.00
Cc1cc(F)cc(C)c1Nc1nccc2c1ncn2CC(=O)N(C)C [Compound 20] = 7.73
Cc1cc(C)c(Nc2nccc3c2ncn3CC(=O)N(C)C)c(C)c1 [Compound 19] = 7.70

For every listed record, write down its pIC50.
1. Cc1cc(C(F)(F)F)cc(Cl)c1Nc1nccc2c1ncn2CC(=O)N(C)C [Compound 15]
2. CN(C)C(=O)Cn1cnc2c(Nc3c(Cl)cc(OC(F)(F)F)cc3Cl)nccc21 [Compound 7]
3. Cc1ccc(C(F)(F)F)c(C)c1Nc1nccc2c1ncn2CC(=O)N(C)C [Compound 18]
4. CC(C)c1cc(F)cc(Cl)c1Nc1nccc2c1ncn2CC(=O)N(C)C [Compound 47]
5. CN(C)C(=O)Cn1cnc2c(Nc3c(Cl)cc(F)cc3Cl)nccc21 [Compound 21]
6. Cc1ccnc(C(C)C)c1Nc1nccc2c1ncn2CC(C)(F)F [Compound 1]

1: 7.85; 2: 8.16; 3: 7.79; 4: 7.87; 5: 7.51; 6: 8.29

For every listed record, write down its pIC50.
1. Cc1nccc(C(F)F)c1Nc1nccc2c1ncn2CC(=O)N(C)C [Compound 27]
2. Cc1nn(-c2cccc(F)c2)c(C)c1Nc1nccc2c1ncn2CC(=O)N(C)C [Compound 34]
3. CCCCn1ncc2c(Nc3c(Cl)cccc3Cl)nccc21 [Compound 66]
4. Cc1cc(F)cc(F)c1Nc1nccc2c1ncn2CC(=O)N(C)C [Compound 26]
5. Cc1cc(F)cc(F)c1Nc1nccc2c1ncn2CC(C)(F)F [Compound 3]

6.43
7.44
7.07
6.72
7.59

For every listed record, write down its pIC50.
1. CNC(=O)Cn1cnc2c(Nc3c(C)cc(C(F)(F)F)cc3C)nccc21 [Compound 4]
2. COc1cc(C)c(Nc2nccc3c2ncn3CC(=O)N(C)C)c(C)c1 [Compound 8]
3. Cc1nn(-c2ccc(F)cn2)c(C)c1Nc1nccc2c1ncn2CC(=O)N(C)C [Compound 32]

1. 8.47
2. 8.26
3. 6.76

For every listed record, write down its pIC50.
1. Cc1cc(C(F)(F)F)cc(C)c1Nc1nccc2c1cnn2CC(=O)N(C)C [Compound 64]
2. Cc1cc(Cl)cc(C)c1Nc1nccc2c1ncn2CC(=O)N(C)C [Compound 11]

1: 7.37; 2: 8.00

For every listed record, write down its pIC50.
1. Cc1ccnc(C(C)C)c1Nc1nccc2c1cnn2CC(=O)N(C)C [Compound 65]
2. Cc1nn(-c2ccccc2)c(C)c1Nc1nccc2c1ncn2CC(=O)N(C)C [Compound 41]
3. Cc1cc(C#N)cc(C)c1Nc1nccc2c1ncn2CC(=O)N(C)C [Compound 46]
4. Cc1cc(C(F)(F)F)nc(C)c1Nc1nccc2c1ncn2CC(=O)N1CCC1 [Compound 51]

[6.76, 7.55, 7.87, 5.83]

For every listed record, write down its pIC50.
1. COc1cccc(-n2nc(C)c(Nc3nccc4c3ncn4CC(=O)N(C)C)c2C)c1 [Compound 36]
2. Cc1cc(-c2cnn(C)c2)cc(C(C)C)c1Nc1nccc2c1ncn2CC(=O)N(C)C [Compound 22]
3. Cc1cc(C(F)(F)F)cc(C)c1Nc1ncc(C)c2c1cnn2CC(=O)N(C)C [Compound 81]

7.53
7.38
7.16

For every listed record, write down its pIC50.
1. Cc1c(C(F)(F)F)nn(C)c1Nc1nccc2c1ncn2CC(=O)N(C)C [Compound 39]
2. CN(C)C(=O)Cn1cnc2c(Nc3c(Cl)cc(C(F)(F)F)cc3Cl)nccc21 [Compound 17]
3. Cc1cc(C(F)(F)F)cc(F)c1Nc1nccc2c1ncn2CC(=O)N(C)C [Compound 25]
4. Cc1n[nH]c(C)c1Nc1nccc2c1ncn2CC(=O)N(C)C [Compound 38]
5. Cc1cc(OC(F)(F)F)cc(Cl)c1Nc1nccc2c1ncn2CC(=O)N(C)C [Compound 16]
6. CCc1cc(C(F)(F)F)cc(C)c1Nc1nccc2c1ncn2CC(=O)N(C)C [Compound 10]

[6.20, 7.79, 6.87, 6.04, 7.87, 8.03]
